# credit: ChEMBL document CHEMBL5223075

Hi there, I'd appreciate the recorded remaining at 2 h for every entry that follows.
ASSAY: Stability in human plasma measured after 2 hrs
Format: ADME, cell-free
DETAILS: read-out: Stability
Numbers only, in %.

> print(dat)
                         structure.notation        value.type  uom  test.result
1  O=C(Nc1ccc(-c2ccc(F)cn2)cc1)c1cc2sc(NCCN3CCOCC3)nc2s1  remaining at 2 h    %         98.2

Per the records, this molecule ( Cc1nc2cc(NC(=O)c3cc4sc(N5CCC(C(=O)N(C)C)CC5)nc4s3)ccc2o1 ) has remaining at 2 h equal to 86.1

###

ASSAY: Cmax in BALB/c mouse at 10 mg/kg, po by LC-MS analysis
Format: ADME, organism-based
Set-up: dose 10 mg/kg, route po
DETAILS: in vivo
Hi there, I'd appreciate the recorded Cmax for every entry that follows.
Answers are plain numbers, in µg/mL.

Use the examples below as a reference point.
> print(dat)
                         structure.notation  value.type  test.result
1  Cc1nc2cc(NC(=O)c3cc4sc(N5CCC(C(=O)N(C)C)CC5)nc4s3)ccc2o1        Cmax         7.01
2  O=C(Nc1ccc(-c2ccc(F)cn2)cc1)c1cc2sc(NCCN3CCOCC3)nc2s1        Cmax         2.94

Per the records, this compound ( Cc1nc2cc(NC(=O)c3cc4sc(N5CCOCC5)nc4s3)ccc2o1 ) has Cmax equal to 0.313

###

ASSAY: Stability in human plasma measured after 4 hrs
Format: ADME, cell-free
DETAILS: read-out: Stability
VALUE_TYPE: remaining at 4 h (%)
Numbers only, in %.

Per the records, this compound ( Cc1nc2cc(NC(=O)c3cc4sc(N5CCOCC5)nc4s3)ccc2o1 ) has remaining at 4 h equal to 86.8

###

Hi there, I'd appreciate the recorded bioavailability for every entry that follows.
ASSAY: Oral bioavailability in BALB/c mouse at 10 mg/kg by LC-MS analysis
Format: ADME, organism-based
DETAILS: in vivo
One number for each entry, in %.

> print(dat)
                         structure.notation  test.result
1  O=C(Nc1ccc(-c2ccc(F)cn2)cc1)c1cc2sc(NCCN3CCOCC3)nc2s1          102

Shifting focus to the molecule that follows.
Per the records, this molecule ( Cc1nc2cc(NC(=O)c3cc4sc(N5CCC(C(=O)N(C)C)CC5)nc4s3)ccc2o1 ) has bioavailability equal to 71.2

###

Hi there, I'd appreciate the recorded t1/2 for every entry that follows.
ASSAY: Metabolic stability in human liver microsome assessed as phase I mediated metabolite formation by measuring half-life
Type: ADME
DETAILS: microsomes

Use the examples below as a reference point.
> print(dat)
                         structure.notation  test.result
1  Cc1nc2cc(NC(=O)c3cc4sc(N5CCOCC5)nc4s3)ccc2o1     > 60 min
2  Cc1nc2cc(NC(=O)c3cc4sc(N5CCC(O)CC5)nc4s3)ccc2o1     > 60 min
3  COc1ccc(-c2ccc(NC(=O)c3cc4sc(NCCN5CCOCC5)nc4s3)cc2)nc1     < 30 min
4  Cc1ccc(-c2ccc(NC(=O)c3cc4sc(NCCN5CCOCC5)nc4s3)cc2)nc1     20.9 min
5  O=C(Nc1ccc(-c2ccc(F)nc2)cc1)c1cc2sc(NCCN3CCOCC3)nc2s1     25.1 min

Shifting focus to the compound that follows.
Per the records, this compound ( Cc1nc2cc(NC(=O)c3cc4sc(NCCN5CCOCC5)nc4s3)ccc2o1 ) has t1/2 equal to > 60 min
